Below are IC50 measurements against Protease (Human immunodeficiency virus 1, UniProt Q9YQ12) drawn from the literature.
result_type: IC50 (nM)

I: COC(=O)N[C@H](C(=O)NCCCC[C@@H](CO)N(CCC(C)C)S(=O)(=O)c1ccc(N)cc1)C(c1ccccc1)c1ccccc1
II: CC(C)CN(C[C@@H](O)[C@H](Cc1ccccc1)NC(=O)O[C@H]1CO[C@H]2[C@@H]1OC[C@H]2O[N+](=O)[O-])S(=O)(=O)c1ccc(N)cc1
III: CC1(C)CCC[C@](C)([C@H]2CC[C@]3(C)[C@@H]2[C@H](O)C[C@@H]2[C@@]4(C)CCC(=O)C(C)(C)[C@@H]4C(=O)C[C@]23C)O1
IV: CC(C)c1nc(CN(C(=O)N[C@H](C(=O)N[C@H](CC[C@H](Cc2ccccc2)NC(=O)OCc2cncs2)Cc2ccccc2)C(C)C)C2CC2)cs1
Order these molecules (above) by their IC50, from the smallest value upward. Form field (ranking): labels in requested order.
I, II, IV, III
(I: 0.03 nM, II: 0.12 nM, IV: 550 nM, III: 42300 nM)

---

Below are IC50 measurements against Protease (Human immunodeficiency virus 1) drawn from the literature.
result_type: IC50 (nM)

I: O=C(N[C@H]1c2ccccc2C[C@H]1O)[C@H](Cc1ccccc1)CC(O)C[C@@H](Cc1ccccc1)C(=O)N[C@H]1c2ccccc2C[C@H]1O
II: CC[C@H](C)[C@H](NC(=O)[C@@H](N)CO)C(=O)N[C@H](C(=O)N[C@@H](CCC(=O)O)C(=O)NC12NC(=O)C3(O)C4C5CC(C6C5C3C61)C42)C(C)C (mixture of isomers)
Of the two listed items, I and II , which carries the larger IC50 figure? Output the label that corresponds to your choice.
II

I: O=C(NC1CCCCC1)[C@@H]1O[C@@H]2O[C@H]1C(=O)N(Cc1ccccc1)[C@H]2Cc1ccccc1
II: O=C1OC(COc2cccc3ccccc23)(c2ccccc2)CC(O)=C1Sc1ccccc1 (racemic)
III: CCCCNC(=O)[C@@H]1O[C@@H]2O[C@H]1C(=O)N(Cc1ccccc1)[C@H]2Cc1ccccc1
Task for the reader: rank each entry by its IC50, from the minimum upward. Form field (ranking): labels in requested order.
II, I, III
(II: 159 nM, I: 1900 nM, III: 7500 nM)

I: COC(=O)N[C@H](C(=O)Nc1ccccc1CC[C@@H]1CN[C@H](COC(=O)N[C@H]2CCc3ccccc32)CO1)C(c1ccccc1)c1ccccc1
II: CC(C)CN(C[C@@H](O)[C@H](Cc1ccccc1)NC(=O)[C@]1(C)CC[C@@H]2C3=CC(=O)[C@@H]4[C@@]5(C)CC[C@H](O)C(C)(C)[C@@H]5CC[C@@]4(C)[C@]3(C)CC[C@@]2(C)C1)S(=O)(=O)c1ccc([N+](=O)[O-])cc1
Of the two listed items, I and II , which carries the larger IC50 figure? Output the label that corresponds to your choice.
II

---

Below are IC50 measurements against Protease (Human immunodeficiency virus 1, UniProt Q9YQ12) drawn from the literature.
result_type: IC50 (µM)

Example entries begin here.
{"smiles_repr": "CC(C)[C@H](NC(=O)OCc1cccnc1)C(=O)N[C@@H](Cc1ccccc1)[C@@H](O)[C@H](O)[C@H](Cc1ccccc1)NC(=O)[C@@H](NC(=O)OCc1cccnc1)C(C)C", "result_type": "IC50", "test_result": 0.00129}
{"smiles_repr": "COc1ccc(S(=O)(=O)N(CC(C)C)C[C@H](O)[C@H](Cc2ccccc2)NC(=O)CN(CC(=O)N2CCOCC2)c2c(C)cccc2C)cc1", "result_type": "IC50", "test_result": 8.65}

1: CC(C)CN(C[C@@H](O)[C@H](Cc1ccccc1)NC(=O)Cn1cnc2c(Cl)nc(N)nc21)S(=O)(=O)c1ccc(N)cc1
2: CC(C)[C@H](NC(=O)CCCNC(=O)[C@]12CCC(C)(C)C[C@H]1C1=CC[C@@H]3[C@@]4(C)CC[C@H](OC(=O)CCC(=O)O)C(C)(C)[C@@H]4CC[C@@]3(C)[C@]1(C)CC2)C(=O)O
Of the two listed items, 1 and 2 , which carries the larger IC50 figure? Output the label that corresponds to your choice.
2
